A collection of compounds and their measured pIC50
target: KDR (VEGFR2) (Homo sapiens, UniProt P35968); construct: phosphorylation of KDR expressed in human umbilical vein endothelial cells (HUVECs); assay: Test (c) in vitro phospho-KDR ELISA assay in HUVECs; conditions: HUVECs stimulated with VEGF, read-out: IC50 versus phospho-tyrosine formation in KDR
Sequence (P35968 20-1356): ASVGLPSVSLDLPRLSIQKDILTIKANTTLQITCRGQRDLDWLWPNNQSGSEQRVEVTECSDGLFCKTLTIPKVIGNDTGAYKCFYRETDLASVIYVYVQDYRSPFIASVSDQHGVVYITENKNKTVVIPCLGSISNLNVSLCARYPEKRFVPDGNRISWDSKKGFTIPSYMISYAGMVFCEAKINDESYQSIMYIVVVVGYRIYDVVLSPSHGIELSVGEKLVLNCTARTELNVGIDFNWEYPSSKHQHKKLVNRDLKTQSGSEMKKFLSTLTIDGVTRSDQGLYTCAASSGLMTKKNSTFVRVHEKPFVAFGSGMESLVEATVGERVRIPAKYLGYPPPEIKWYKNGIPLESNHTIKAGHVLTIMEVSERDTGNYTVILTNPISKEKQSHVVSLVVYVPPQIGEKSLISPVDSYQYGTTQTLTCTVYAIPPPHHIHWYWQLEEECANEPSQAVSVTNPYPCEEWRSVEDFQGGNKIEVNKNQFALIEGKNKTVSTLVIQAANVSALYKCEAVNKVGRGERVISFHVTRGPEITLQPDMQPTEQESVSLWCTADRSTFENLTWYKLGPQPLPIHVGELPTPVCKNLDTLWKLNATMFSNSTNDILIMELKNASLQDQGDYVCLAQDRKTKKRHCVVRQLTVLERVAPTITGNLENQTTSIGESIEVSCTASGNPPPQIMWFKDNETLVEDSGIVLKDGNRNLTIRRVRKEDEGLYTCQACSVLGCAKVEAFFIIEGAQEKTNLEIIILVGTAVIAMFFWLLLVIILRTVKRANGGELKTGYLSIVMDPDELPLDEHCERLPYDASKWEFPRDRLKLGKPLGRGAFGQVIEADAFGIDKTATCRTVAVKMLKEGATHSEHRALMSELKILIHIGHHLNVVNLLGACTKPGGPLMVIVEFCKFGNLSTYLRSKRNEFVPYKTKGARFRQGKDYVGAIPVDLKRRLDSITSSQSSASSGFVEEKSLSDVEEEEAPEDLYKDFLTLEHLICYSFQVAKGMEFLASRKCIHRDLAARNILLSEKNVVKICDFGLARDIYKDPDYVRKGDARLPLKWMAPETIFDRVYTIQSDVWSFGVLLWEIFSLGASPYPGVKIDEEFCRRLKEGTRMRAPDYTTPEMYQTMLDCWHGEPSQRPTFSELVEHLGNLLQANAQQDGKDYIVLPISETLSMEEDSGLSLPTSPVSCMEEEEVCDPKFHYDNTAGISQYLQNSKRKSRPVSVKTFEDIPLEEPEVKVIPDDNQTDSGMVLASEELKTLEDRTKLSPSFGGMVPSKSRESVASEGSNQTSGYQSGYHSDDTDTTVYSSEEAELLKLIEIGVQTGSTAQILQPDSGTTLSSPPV
pIC50: −log10 of the molar value.

Look over these answered cases.
> print(dat)
                              smiles.string  measured.result
1  COc1cc(Oc2ccnc3ccc(F)cc23)ccc1CC(=O)Nc1cc(C)[nH]n1           < 5.70
2  CCn1cc(NC(=O)Cc2ccc(Oc3ccnc4cc(OC)c(C#N)cc34)cc2OC)cn1            ~6.12
3  COc1cc(Oc2ccnc3ccc(F)cc23)ccc1CC(=O)Nc1n[nH]c(C)c1C           < 5.70
4  CCn1cc(NC(=O)Cc2ccc(Oc3ccnc4ccccc34)cc2OC)cn1           < 6.00
5  CNC(=O)c1cc2c(Oc3ccc(CC(=O)Nc4noc(C)c4C)c(OC)c3)ccnc2cc1OC            ~6.00
6  CCc1c[nH]nc1NC(=O)Cc1ccc(Oc2ccnc3cc(OC)c(OC)cc23)cc1OC           < 5.70
7  CCn1cc(NC(=O)Cc2ccc(Oc3ccnc4cc(OC)c(C(=O)N(C)C)cc34)cc2)cn1            ~6.15

Turning now to a further compound:
Dear colleague, I am looking for the recorded pIC50 of the following compound: CCn1cc(NC(=O)Cc2ccc(Oc3ccnc4cc(OC)c(C#N)cc34)cc2)cn1
~6.70
